The reported measurements were obtained from ChEMBL document CHEMBL5376007.

# experimentNotes: Tmax in Sprague-Dawley rat at 25 mg/kg, po by LC-MS/MS analysis
# Format: ADME, organism-based
# assayConditions: in vivo
endpoint: Tmax (min)
API: value field is a number in min; no unit string.

Task: Could you please provide reported Tmax for "COc1nc(O[C@H]2CCc3c(-c4cccc(C(=O)Nc5ccc(CNC[C@@H]6CCC(=O)N6)cn5)c4Cl)cccc32)c(Cl)cc1CNC[C@@H]1CCC(=O)N1" ? Thanks!
Output: 18

====

# experimentNotes: AUC(0 to t) in Sprague-Dawley rat at 5 mg/kg, iv by LC-MS/MS analysis
# Format: ADME, organism-based
# Set-up: dose 5 mg/kg, route iv
# assayConditions: in vivo
endpoint: AUC(0-t) (ng·h/mL)
The reply should contain only the number, in ng·h/mL.

Task: Give reported AUC(0-t) value for "COc1nc(O[C@H]2CCc3c(-c4cccc(C(=O)Nc5ccc(CNC[C@@H]6CCC(=O)N6)cn5)c4Cl)cccc32)c(Cl)cc1CNC[C@@H]1CCC(=O)N1"
Output: 890
